Assign Papp A→B to each entry below.
assay_comment: Permeability from apical to basolateral side in human Caco2 cells
Format: ADME, cell-based
condition_parameters: Caco-2, read-out: permeability
Number only, in ×10⁻⁶ cm/s; omit the unit.

I'd like to know its Papp A→B. The compound in question is `CN1CCC(c2c[nH]c3ccc(Nc4ccc5c(C6CCNCC6)c[nH]c5n4)cc23)CC1`
0.02

I'd like to know its Papp A→B. The compound in question is `c1cc2c(C3CCNCC3)c[nH]c2cc1Nc1ccc2c(C3CCNCC3)c[nH]c2c1`
0.01

###

assay_comment: Metabolic stability in human liver microsomes assessed as parent compound remaining after 1 hr
Assay type: ADME, microsome
condition_parameters: read-out: Stability
result_type: remaining at 1 h

I'd like to know its remaining at 1 h. The molecule in question is `CN1CCC(c2c[nH]c3ccc(Nc4ccc5c(C6CCNCC6)c[nH]c5n4)cc23)CC1`
95%

I'd like to know its remaining at 1 h. The molecule in question is `c1cc2c(C3CCNCC3)c[nH]c2cc1Nc1ccc2c(C3CCNCC3)c[nH]c2c1`
89%
